Molecular target: SARS-CoV-2 spike protein, WA1/2020, borne on lentiviral pseudovirus (SARS-CoV-2, WA01/2020 strain, UniProt P0DTC2 14-1273)
Experiment: cell-based or functional assay
# Pseudo Neut, WA1/2020 IC50 (pM) listing for each entry below
metric: Pseudo Neut, WA1/2020 IC50 (pM)

>>> numeric_result("antibody 2564 (antibody, V domains shown) VH: QVQLVQSGAEVKKPGSSVRVSCKASGGTFISYTFNWVRQAPGQGLEWMGRIIPIFGIVNYAQKFQGRVTIAADKSTSTAYMELSSLRSEDTAMYYCATATVDYDSGEEQSSFDPWGQGTLVTVSS VL: EIVLTQSPGTLSLSPGERATLSCRASQSVSSSYLAWYQQKAGQTPRLLIYAASSRATGVPDRFSGSGSGTDFTLTISRLEAEDFAVYYCQQSWTFGQGTKVEIK")
160
>>> numeric_result("antibody 2075 (antibody, V domains shown) VH: QVQLVQSGAEVKKPGSSVKVSCTASGGTFSIYAFSWVRQAPGQGLEWMGGIIPISGTAGYAQKFQGRVTITADESTSTAYMELSSLRSEDTAIYYCARKYRYCSGSRCYTYFDYWGQGTLVTVSS VL: DIQMTQSPSSLSASVGDRVTITCRASQSISSFLNWYQQKPGKAPKLLIYAASSLQSGVPSRFSGSGSGTDFTLTISSLQPEDSATYYCQQSYSTITFGQGTRLEIK")
783
>>> numeric_result("antibody 1872 (antibody, V domains shown) VH: EVQLVESGGGLVKPGGSLRLSCAASGFSFSLYTMNWVRQAPGKGLEWVSYISSSSSYRYYADSVKGRFSVSRDNAKNALYLQMNGLRAEDTAVYYCARDGYCPRGVCTYYGMDVWGQGTTVTVSA VL: EIVMTQSPATLSVSPGERATLSCRASQSVGSRLAWYQQKPGQAPRLLIYDATIRATGIPARFSGSGSGTDFTLTISGLQSEDFAVYYCQRYNNWPPAYTFGQGTKLEIK")
133
>>> numeric_result("antibody 2892 (antibody, V domains shown) VH: QVQLVQSGAEVKKPGSSVKVSCKASGDAFISYAISWVRQAPGQGLEWMGGIIPIFGTANYAQKFQGRVTISADESTSTAYMELSRLRSEDTAVYYCARGGPEPYGSGSGYTPRYNWFDPWGQGTLVTVSS VL: QSALTQPRSVSGSPGQSVTISCTGTSSDVGGYNYVSWYQQHPGKAPKFMIYDVNRRPSGVPDRFSGSKSGNTASLTISGLQAEDEADYYCCSYAGTYTWVFGGGTKLTVL")
65
>>> numeric_result("antibody 980 (antibody, V domains shown) VH: QVQLVESGGGVVQPGRSLRLSCAASGFTFSRYGMHWVRQAPGKGLEWVALISSGGSNKYYADSVKGRFTISRDNSKNTLYLEMNSLRAEDTAVYYCAKDAIYDYIWGAYRENWFDPWGQGTLVTVSS VL: DIQMTQSPSSLSASVGDRVTITCRASQSISNYLNWYQQKPGKAPNLLIYAASSLQSGVPSRFSGSGSGTDFTLTISSLQPEDFATYYCQQTSSPPLTFGQGTKVEIK")
952
